Assay: Acute toxicity in rabbits
Details: rabbit, in vivo, route not given
Property: LD50 (mg/kg)
Enter your answer as a number in mg/kg; do not include the unit.

Any idea what its LD50 is? The molecule is `Cl.O=[N+]([O-])c1cccc2nc3ccccc3c(NCCO)c12`
11.4
